B1: CPEB3 Ribozyme (parent)
chain: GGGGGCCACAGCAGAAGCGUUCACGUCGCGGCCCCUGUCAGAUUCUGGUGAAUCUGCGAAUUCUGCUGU

variants of: B1; assay: self-cleavage, relative activity (ratio to wild type); higher = more cleavage; co-transcriptional
Test readout: self-cleavage
Answer as a number with no unit attached.

Reference set (8 entries):
{"Primary sequence": "GGGGGCCCCAGCAGAAGAGUUCACGUCGCGGCCCCUGUCAGAUUCUGGUGAAUCUGCGAAUUCUGCUGU", "Test readout": "self-cleavage", "Reading": 0.152}
{"Primary sequence": "GGGGGCCACAGCCGAAGCGUUCACGUCGCGGCCCCUGUCAGAUUCUGGUGAAUCUGCGAAUUCUUCUGU", "Test readout": "self-cleavage", "Reading": 0.41}
{"Primary sequence": "GGGAGCCACAGCAGAAGCGUUCACGUCGCGGCCCCUGUCAGAUUCUGGUGACUCUGCGAAUUCUGCUGU", "Test readout": "self-cleavage", "Reading": 0.763}
{"Primary sequence": "GGGGGCCACAGCAUAAGCGUUCACGUCGCGGCCCCUGUCAGAUUCUGGUGAAUCUGCGAAAUCUGCUGU", "Test readout": "self-cleavage", "Reading": 0.461}
{"Primary sequence": "GGGGGCCGCAGCAGAAGCGUUCACGUCGCGGCCCCUGUCAGAUUCUGGUGAAUCUGCGAAUUCUCCUGU", "Test readout": "self-cleavage", "Reading": 0.424}
{"Primary sequence": "GGGGGCCACAGCACAAGCGUUCACGUCGCGGCCCCUGACAGAUUCUGGUGAAUCUGCGAAUUCUGCUGU", "Test readout": "self-cleavage", "Reading": 0.308}
{"Primary sequence": "GGGUGCCACAGCAGAAGCGUUCACGUCGCGGCCCCUGGCAGAUUCUGGUGAAUCUGCGAAUUCUGCUGU", "Test readout": "self-cleavage", "Reading": 0.114}
{"Primary sequence": "GGGUGCCACAGCAGAAGCGUUCACGUCGCAGCCCCUGUCAGAUUCUGGUGAAUCUGCGAAUUCUGCUGU", "Test readout": "self-cleavage", "Reading": 0.142}

Input: Report measured self-cleavage; entry is `GGGGGCCUCAGCAGAAGCGUUCACGUCGCGGCCCCUGUCAGAUUGUGGUGAAUCUGCGAAUUCUGCUGU`
Output: 0.958

Input: Identify measured self-cleavage corresponding to `GGGAGCCACAGCAGAAGCAUUCACGUCGCGGCCCCUGUCAGAUUCUGGUGAAUCUGCGAAUUCUGCUGU`
Output: 0.092

Input: For the variant `GGGGGCCACAGCAGAAGCGUUCACGUCGCGGCCCCUGUCAGAUACUGGUGAAUCUGCGAAUACUGCUGU` , give its reported self-cleavage.
Output: 0.838

All figures here come from the RNAGym collection of RNA variant scans (doi:10.7554/elife.80360).
